Data provenance is ChEMBL document CHEMBL4184097.

Biological target: Serine racemase (Homo sapiens) (UniProt Q9GZT4)
Sequence (whole entry): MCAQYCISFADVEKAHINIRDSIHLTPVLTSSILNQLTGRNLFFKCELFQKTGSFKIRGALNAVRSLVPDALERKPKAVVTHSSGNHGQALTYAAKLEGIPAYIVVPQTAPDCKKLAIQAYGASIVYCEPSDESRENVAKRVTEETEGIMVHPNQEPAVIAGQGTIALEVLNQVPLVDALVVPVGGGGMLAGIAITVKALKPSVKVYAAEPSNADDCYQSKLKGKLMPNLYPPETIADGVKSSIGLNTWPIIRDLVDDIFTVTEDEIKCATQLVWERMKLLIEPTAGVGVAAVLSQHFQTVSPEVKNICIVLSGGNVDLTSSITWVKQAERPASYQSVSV
Test: Inhibition of wild-type serine racemase (unknown origin) assessed as residual activity by measuring D-serine level at 1 mM using […] as substrate and PLP as co-factor pretreated for 30 mins followed by substrate and co-factor addition measured after 30 mins relative to control
property measured: Activity (%)

Please review the following examples before continuing.
compound	target of assay	measurement units	Activity
COc1ccccc1CCCC(=O)OCC(=O)Nc1ccc(NC(C)=O)cc1	Serine racemase (Homo sapiens) (UniProt Q9GZT4)	%	76
CC(OC(=O)CCSc1ccccc1Cl)C(=O)Nc1ccccc1 (configuration not stated)	Serine racemase (Homo sapiens) (UniProt Q9GZT4)	%	91
COc1ccccc1SCCC(=O)NCC(=O)Nc1ccc(NC(C)=O)cc1	Serine racemase (Homo sapiens) (UniProt Q9GZT4)	%	100
CC(=O)Nc1ccc(NC(=O)COC(=O)CCSc2cccc(Cl)c2)cc1	Serine racemase (Homo sapiens) (UniProt Q9GZT4)	%	100
CC(=O)c1ccc(NC(=O)NNC(=O)Cc2ccc(Cl)c(Cl)c2)cc1	Serine racemase (Homo sapiens) (UniProt Q9GZT4)	%	56

A = CC(=O)Nc1ccc(NC(=O)COC(=O)CCSc2ccccc2F)cc1
B = CC(=O)Nc1ccc(NC(=O)CNC(=O)CCSc2ccccc2Cl)cc1
Query: Two entries are listed, A and B . Which one carries the higher Activity? Indicate your choice by writing its label.
Reply: B

* * *

Target: Serine racemase (Homo sapiens) (UniProt Q9GZT4)
Sequence (whole entry): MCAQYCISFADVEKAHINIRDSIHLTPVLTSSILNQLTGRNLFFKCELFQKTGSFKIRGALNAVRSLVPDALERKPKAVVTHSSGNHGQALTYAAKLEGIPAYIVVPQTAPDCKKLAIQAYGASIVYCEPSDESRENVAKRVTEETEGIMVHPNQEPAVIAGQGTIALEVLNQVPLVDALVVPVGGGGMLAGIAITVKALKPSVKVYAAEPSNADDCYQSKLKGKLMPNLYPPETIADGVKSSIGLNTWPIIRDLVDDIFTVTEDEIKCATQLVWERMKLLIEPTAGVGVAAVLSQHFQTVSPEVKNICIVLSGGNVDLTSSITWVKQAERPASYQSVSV
Assay: Inhibition of wild-type serine racemase (unknown origin) assessed as residual activity by measuring D-serine level at 1 mM using […] as substrate and PLP as co-factor pretreated for 30 mins followed by substrate and co-factor addition measured after 30 mins relative to control
property measured: Activity (%)

Please review the following examples before continuing.
molecule	measurement units	Activity
CC(=O)Nc1ccc(NC(=O)COC(=O)CCSc2ccccc2Cl)cc1	%	84
CC(=O)Nc1ccc(NC(=O)COC(=O)CCOc2ccccc2F)cc1	%	88
COc1cccc(SCCC(=O)OCC(=O)Nc2ccc(NC(C)=O)cc2)c1	%	61
CCc1ccccc1NC(=O)C(C)OC(=O)CCSc1ccccc1Cl (stereo unspecified)	%	91
COc1ccccc1SCCC(=O)NC(C)C(=O)Nc1ccc(NC(C)=O)cc1 (stereo unspecified)	%	92

1 = CC(=O)Nc1ccc(NC(=O)COC(=O)CCSc2ccccc2)cc1
2 = CC(=O)Nc1ccc(NC(=O)C(C)OC(=O)CCSc2ccccc2Cl)cc1 (stereo unspecified)
Query: Hi! Which is lower in terms of Activity, the first one 1 or the second one 2 ? Indicate your choice by writing its label.
Reply: 2
(2: 49%, 1: 72%)

1 = COc1ccccc1CCCC(=O)CCC(=O)Nc1ccc(NC(C)=O)cc1
2 = COc1ccc(SCCC(=O)OCC(=O)Nc2ccc(NC(C)=O)cc2)cc1
3 = COc1ccccc1SCCC(=O)OCC(=O)Nc1ccc(NC(C)=O)cc1
Query: Order each entry by recorded Activity, climbing from the minimum. Submit the labels in the order that the ranking request calls for.
Reply: 3, 2, 1
(3: 36%, 2: 65%, 1: 100%)
